target: cathepsin B (Homo sapiens, UniProt P07858); construct: purchased Sigma; assay: Cathepsin B inhibition (KI); format: biochemical; conditions: Table 1, Z-Leu--AA--CONHR; read-out: KI Cat B
EXPERIMENTAL READOUT: Ki (µM)

a: CC[C@H](NC(=O)[C@H](CC(C)C)NC(=O)OCc1ccccc1)C(=O)C(=O)NCc1cc(OC)cc(OC)c1
b: CC(C)CC(NC(=O)OCc1ccccc1)C(=O)NC(Cc1ccccc1)C(=O)C(=O)NCc1ccccn1 (stereo not drawn)
c: CCC(NC(=O)[C@H](CC(C)C)NC(=O)OCc1ccccc1)C(=O)C(=O)NCCc1cccn1C (stereo partly drawn)
In: Descending by Ki please, for everything listed above. # output: labels, in the requested order
Out: a, c, b
(a: 1.8 µM, c: 1.2 µM, b: 0.27 µM)
